Cited source for all entries: PubChem BioAssay AID2658

- testedOn: Ubiquitin-conjugating enzyme E2 N (Homo sapiens) (UniProt P61088)
- Sequence (P61088 whole entry, looked up): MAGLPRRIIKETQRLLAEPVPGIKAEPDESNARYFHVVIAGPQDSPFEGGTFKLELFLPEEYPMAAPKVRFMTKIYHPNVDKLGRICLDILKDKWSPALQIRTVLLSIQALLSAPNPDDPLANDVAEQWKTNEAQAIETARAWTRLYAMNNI
- testProtocol: inhibition of Ubc13-driven ubiquitin chain assembly – biochemical, TR-FRET, Uev1a, selectivity assay, SAR follow-up (AID 2658)
- experimentalSetup: Ubc13/Uev1a polyubiquitination, in vitro
Calls of active or inactive are those of the source. How the calls were made is not given here.
Could you please pick one outcome from this set? T for active, F for inactive

The examples below pair each entry with its known result.
| compound | answerLabel |
| --- | --- |
| Cc1ccc(C=Nc2ccccc2C(N)=O)s1 | F |
| COc1ccc(C=NNc2cc(N3CCCC3)nc(N3CCCC3)n2)cc1 | T |
| COC(=O)c1c(-c2ccccc2)csc1NC(=O)/C=C/c1cccs1 | F |
| COc1ccccc1CNC(=O)c1cc(-c2ccco2)nc2ccccc12 | F |
| CCNC(=O)COC(=O)c1cc(-c2ccco2)nc2ccccc12 | F |

Query: Look up the recorded call for COc1ccc(CNC(=O)COC(=O)c2cc(-c3cccs3)nc3ccccc23)cc1 in this test.
Reply: T

Query: I would be grateful if you could indicate the recorded call for O=C1c2oc3ccccc3c(=O)c2C(c2ccccc2)N1c1nccs1 (configuration not stated) .
Reply: F

###

Catalogue of molecules with associated IC50
- testedOn: Ubiquitin-conjugating enzyme E2 N (Homo sapiens) (UniProt P61088)
- testProtocol: inhibition of Ubc13-driven ubiquitin chain assembly – biochemical, TR-FRET, Uev1a, selectivity assay, SAR follow-up (AID 2658)
- experimentalSetup: Ubc13/Uev1a polyubiquitination, in vitro
Activity calls are given as the source filed them. No rule for the calls is given here.

Past entries and their recorded results:
| molecule | testedOn | IC50 |
| --- | --- | --- |
| COc1ccc(CNC(=O)COC(=O)c2cc(-c3ccco3)nc3ccccc23)cc1 | Ubiquitin-conjugating enzyme E2 N (Homo sapiens) (UniProt P61088) | 34.6 µM |
| COc1ccccc1CNC(=O)COC(=O)c1cc(-c2ccco2)nc2ccccc12 | Ubiquitin-conjugating enzyme E2 N (Homo sapiens) (UniProt P61088) | 60.2 µM |
| O=C(O)c1ccc2c(c1)C1C=CCC1C(c1ccccc1)N2 (stereo unspecified) | Ubiquitin-conjugating enzyme E2 N (Homo sapiens) (UniProt P61088) | > 100 µM (inactive) |

IC50 measured on Fc1ccc(C2Nc3ccccc3C3C=CCC32)cc1 (stereo unspecified) = > 100 µM (inactive)

###

- testedOn: Ubiquitin-conjugating enzyme E2 N (Homo sapiens) (UniProt P61088)
- testProtocol: inhibition of Ubc13-driven ubiquitin chain assembly – biochemical, TR-FRET, Uev1a, selectivity assay, SAR follow-up (AID 2658)
- experimentalSetup: Ubc13/Uev1a polyubiquitination, in vitro
Activity calls are given as the source filed them. The rule behind the calls is not given here.
Listed compounds paired with reported IC50

Example entries and their recorded answers appear below.
| smilesRecord | IC50 |
| --- | --- |
| COC(=O)c1cccc(-c2ccc(C(c3c(C)[nH][nH]c3=O)c3c(C)[nH][nH]c3=O)o2)c1 | > 100 µM (inactive) |
| CC(=NOCc1nc2ccccc2c(=O)n1N=Cc1cc([N+](=O)[O-])ccc1O)c1ccccc1 | > 100 µM (inactive) |

We next turn to a different compound, shown below.
Query COc1ccccc1C(=O)NC(=O)COC(=O)c1cc(-c2ccco2)nc2ccccc12 yields IC50 of > 100 µM (inactive)

###

- testedOn: Ubiquitin-conjugating enzyme E2 N (Homo sapiens) (UniProt P61088)
- testProtocol: inhibition of Ubc13-driven ubiquitin chain assembly – biochemical, TR-FRET, Uev1a, selectivity assay, SAR follow-up (AID 2658)
- experimentalSetup: Ubc13/Uev1a polyubiquitination, in vitro
Activity calls are given as the source filed them. The rule behind the calls is not given here.
# Lookup of reported IC50 keyed by entry

Answered cases to consult:
| compound | IC50 |
| --- | --- |
| Cc1ccccc1NC(=O)Cn1c(O)c(N=NC(=O)c2ccccc2O)c2ccccc21 | 98 µM |
| O=C(N=Nc1c(O)[nH]c2ccc([N+](=O)[O-])cc12)c1ccccc1Cl | > 100 µM (inactive) |
| O=C(COC(=O)c1cc(-c2ccco2)nc2ccccc12)NCc1cccc(Cl)c1 | > 100 µM (inactive) |

Sure, the documented IC50 for C=CCC(Nc1ccccc1)C12C=CC(O1)C(C(=O)OC)=C2C(=O)OC (centres undefined) is > 100 µM (inactive)

The reported value for O=C(O)c1ccc(C2Nc3ccc(F)cc3C3C=CCC32)cc1 (centres undefined) in terms of IC50 is > 100 µM (inactive)

In plain terms, COc1ccccc1CNC(=O)CCOC(=O)c1cc(-c2ccco2)nc2ccccc12 has a documented IC50 of > 100 µM (inactive)

C/C(=N\OCc1nc2ccccc2c(=O)n1/N=C/c1cc(Br)ccc1O)c1ccccc1 has a reported IC50 of > 100 µM (inactive)

Entry COc1ccc(CCNC(=O)c2cc(-c3ccco3)nc3ccccc23)cc1 ; IC50 = 65 µM

Note to self: IC50 recorded for Cc1ccccc1CNC(=O)COC(=O)c1cc(-c2ccco2)nc2ccccc12 was 81.1 µM

For record Cc1ccc(O)c(N=Cc2cccs2)c1 the listed IC50 is > 100 µM (inactive)

Field IC50 (entry COc1cc(C2c3c(oc4ccccc4c3=O)C(=O)N2c2nccs2)ccc1O (centres undefined) ) reads > 100 µM (inactive)

Notebook: S=c1[nH]nc(-c2cc(-c3ccccc3)n[nH]2)n1N=Cc1c(Cl)cccc1Cl , IC50 read as > 100 µM (inactive)

Lab note: measured IC50 of COc1ccc(CCNC(=O)COC(=O)c2cc(-c3ccco3)nc3ccccc23)cc1OC was 92.6 µM

The reported IC50 of the compound Clc1ccc2c(c1)C1C=CCC1C(c1ccccc1)N2 (centres undefined) was > 100 µM (inactive)

###

- testedOn: Ubiquitin-conjugating enzyme E2 N (Homo sapiens) (UniProt P61088)
- testProtocol: inhibition of Ubc13-driven ubiquitin chain assembly – biochemical, TR-FRET, Uev1a, selectivity assay, SAR follow-up (AID 2658)
- experimentalSetup: Ubc13/Uev1a polyubiquitination, in vitro
Activity calls are given as the source filed them. No rule for the calls is given here.
Could you please pick one outcome from this set? active, inactive

Would you please look over these solved cases?
| molecule | testedOn | answerLabel |
| --- | --- | --- |
| Cc1ccc(N=Cc2sccc2C)cc1C | Ubiquitin-conjugating enzyme E2 N (Homo sapiens) (UniProt P61088) | inactive |
| Cc1ccsc1C=Nc1ccc(C(N)=O)cc1 | Ubiquitin-conjugating enzyme E2 N (Homo sapiens) (UniProt P61088) | inactive |
| O=C(O)c1ccc(NS(=O)(=O)c2ccc3c(c2)C2C=CCC2C(c2ccccc2F)N3)cc1 (configuration not stated) | Ubiquitin-conjugating enzyme E2 N (Homo sapiens) (UniProt P61088) | inactive |

Query: Recorded test call requested for COc1ccccc1COC(=O)COC(=O)c1cc(-c2ccco2)nc2ccccc12
Reply: active

Query: Please state the recorded outcome for this molecule: S=c1[nH]nc(-c2cc(-c3ccccc3)n[nH]2)n1N=Cc1ccccc1
Reply: inactive

Query: Recorded test call requested for O=C(Nc1ccccc1N1CCOCC1)c1cc(-c2ccco2)nc2ccccc12
Reply: inactive

Query: Check the results log: what was the call for O=C(/C=C/c1cccs1)Nc1scc(-c2ccccc2)c1C(=O)O ?
Reply: active

Query: Check the results log: what was the call for COc1cc(-c2n[nH]c(=S)n2/N=C/c2cccn2C)cc(OC)c1OC ?
Reply: inactive

Query: Outcome logged for Cc1ccsc1C=Nc1ccc(O)cc1 in this assay:
Reply: inactive

Query: Call for entry C=CCn1c(NS(=O)(=O)c2ccccc2)c(S(=O)(=O)c2ccc(C)cc2)c2nc3ccccc3nc21 :
Reply: inactive

Query: Status in this test for O=C(NNc1cc(N2CCCC2)nc(N2CCCC2)n1)c1ccc([N+](=O)[O-])cc1 ?
Reply: inactive

Query: I'd appreciate the recorded outcome for CCN(CC)CCNC(=O)c1cc(-c2ccco2)nc2ccccc12 from this test.
Reply: inactive

Query: // param item: S=c1[nH]nc(-c2cc(-c3ccccc3)n[nH]2)n1N=Cc1cccc(Cl)c1 ; yields the recorded call
Reply: inactive

Query: What call does the record list for O=C(COC(=O)c1cc(-c2ccco2)nc2ccccc12)NCc1ccccc1Cl ?
Reply: inactive

Query: What did this assay record as the result for S=c1[nH]nc(-c2cc(-c3ccccc3)n[nH]2)n1N=Cc1ccc(Br)s1 ?
Reply: inactive

Query: Lab log entry: Nc1ccc2c(c1)C1C=CCC1C(c1ccccc1)N2 (configuration not stated) — outcome as called in the assay?
Reply: inactive

Query: Per the records of this test, what outcome belongs to COC(=O)c1ccc(CNC(=O)COC(=O)c2cc(-c3ccco3)nc3ccccc23)cc1 ?
Reply: inactive

Query: Status in this test for Cc1ccc(NC(=O)Cn2c(O)c(N=NC(=O)c3cc4ccccc4cc3O)c3ccccc32)cc1 ?
Reply: inactive

Query: Recorded call for CCN(CC)S(=O)(=O)c1ccc(O)c(NC(=O)c2cc(-c3cc(OC)c(OC)c(OC)c3)nc3ccccc23)c1 ?
Reply: inactive

Query: Can you look up the reported call for Cc1ccc(Nc2cc3ccccc3c(=O)[nH]2)cc1 for me?
Reply: inactive
